Cited source for all entries: patent US20160151275A1

conditions: human, inhaled or intranasal
assay_readout: bioavailability

Q: Any idea what its bioavailability is? The compound is Cn1c(=O)c2c(ncn2C)n(C)c1=O
Ans: 80 to 90%
